Where do the numbers come from? From patent US20120258980A1.

# System: VISA clinical isolates of MRSA (VI-MRSA) and of MSSA (VI-MSSA)
# assay-protocol: microbe, parasite or virus in culture
# Assay type: cell-based, Staphylococcus aureus
# assay-conditions: Staphylococcus aureus, NJ (HIP5836), VI-MRSA, America
Where a name gives a salt, the structure may show the parent alone.
As shown below, each of these compounds has a reported MIC value.
Write it as a number; the unit µg/mL goes unstated.

• NC1CCN(c2nc3c(cc2F)c(=O)c(C(=O)O)cn3-c2ccc(F)cc2F)C1 (stereo not drawn) [TFLX, tosufloxacin tosylate] = 32

Now let's try a different one.
Form: compound = Cc1cc(=O)n2c3c(c4c(cc13)c(CO)cc(=O)n4C)OC2 ; MIC = 0.5

---

# System: Enterococcus faecalis
# assay-protocol: MIC measurement, Test Example 6 (enterococcus)
# Type: cell-based
# assay-conditions: Enterococcus faecalis, E. faecalis 36-15673, quinolone-susceptible enterococci; read-out: MIC
Where a name gives a salt, the structure may show the parent alone.
Parameter: MIC. Scope: all listed entries.
Numeric only. Scale: µg/mL

Take a look at these entries with their results.
- CCn1cc(C(=O)O)c(=O)c2cc(F)c(N3CCNCC3)cc21: 4
- C[C@H]1COc2c(N3CCN(C)CC3)c(F)cc3c(=O)c(C(=O)O)cn1c23: 1
- CC1COc2c(N3CCN(C)CC3)c(F)cc3c(=O)c(C(=O)O)cn1c23 (stereo not shown): 2
- C[C@@H]1CN(c2c(F)c(N)c3c(=O)c(C(=O)O)cn(C4CC4)c3c2F)C[C@H](C)N1: 1

Note to self: MIC recorded for NC1CCN(c2nc3c(cc2F)c(=O)c(C(=O)O)cn3-c2ccc(F)cc2F)C1 (stereo not shown) [TFLX, tosufloxacin tosylate] was 0.5

---

# System: Enterococcus faecalis
# assay-protocol: MIC measurement, Test Example 6 (enterococcus)
# Type: cell-based
# assay-conditions: Enterococcus faecalis, E. faecalis 36-15736, quinolone-susceptible enterococci; read-out: MIC
Where a name gives a salt, the structure may show the parent alone.
Kindly apply the following: Met if MIC is less than 1 mg/L, Not met in every other case.

Solved cases (5 shown):
* Cc1cc(=O)n(C)c2c3c4c(cc12)c(C)cc(=O)n4CO3 | Not met
* NC1CCN(c2nc3c(cc2F)c(=O)c(C(=O)O)cn3-c2ccc(F)cc2F)C1 (stereo not shown) [TFLX, tosufloxacin tosylate] | Met
* CCn1cc(C(=O)O)c(=O)c2cc(F)c(N3CCNCC3)cc21 | Not met
* C[C@@H]1CN(c2c(F)c(N)c3c(=O)c(C(=O)O)cn(C4CC4)c3c2F)C[C@H](C)N1 | Met
* CC1COc2c(N3CCN(C)CC3)c(F)cc3c(=O)c(C(=O)O)cn1c23 (stereo not shown) | Not met

Below: the item to evaluate.
Report whether reported MIC is lower than 1 mg/L (strictly) for Cc1cc(=O)n2c3c(c4c(cc13)c(CO)cc(=O)n4C)OC2
Not met

---

# System: VISA clinical isolates of MRSA (VI-MRSA) and of MSSA (VI-MSSA)
# assay-protocol: microbe, parasite or virus in culture
# Type: cell-based, Staphylococcus aureus
# assay-conditions: Staphylococcus aureus, HIP09433, VI-MRSA, America
value-kind: MIC (µg/mL)
API: value field is a number in µg/mL; no unit string.

* C[C@@H]1CN(c2c(F)c(N)c3c(=O)c(C(=O)O)cn(C4CC4)c3c2F)C[C@H](C)N1 | 64

Then this compound:
Entry C[C@H]1COc2c(N3CCN(C)CC3)c(F)cc3c(=O)c(C(=O)O)cn1c23 , VISA clinical isolates of MRSA (VI-MRSA) and of MSSA (VI-MSSA) data, MIC value: 32

---

Entries annotated with measured MIC
# Tested on: MRSA, CA-MRSA and MSSA of Staphylococcus aureus
# assay-protocol: MIC measurement, Test Example 4 (MRSA, CA-MRSA and MSSA strains)
# Assay type: cell-based
# assay-conditions: Staphylococcus aureus, MRSA / MSSA / USA300, USA300 FPR3757, CA-MRSA
Structures can show the parent of a compound that is named as a salt.
Answer format: numeric, µg/mL implied, no suffix.

• CN[C@H](CC(C)C)C(=O)N[C@H]1C(=O)N[C@@H](CC(N)=O)C(=O)N[C@H]2C(=O)N[C@H]3C(=O)N[C@H](C(=O)N[C@H](C(=O)O)c4cc(O)cc(O)c4-c4cc3ccc4O)[C@H](O)c3ccc(c(Cl)c3)Oc3cc2cc(c3O[C@@H]2O[C@H](CO)[C@@H](O)[C@H](O)[C@H]2O[C@H]2C[C@](C)(N)[C@H](O)[C@H](C)O2)Oc2ccc(cc2Cl)[C@H]1O [VCM, vancomycin] = 1

// MIC (MRSA, CA-MRSA and MSSA of Staphylococcus aureus) for NC1CCN(c2nc3c(cc2F)c(=O)c(C(=O)O)cn3-c2ccc(F)cc2F)C1 (centres unmarked) [TFLX, tosufloxacin tosylate] = 16

---

# Tested on: VISA clinical isolates of MRSA (VI-MRSA) and of MSSA (VI-MSSA)
# assay-protocol: microbe, parasite or virus in culture
# Format: cell-based, Staphylococcus aureus
# assay-conditions: Staphylococcus aureus, 99/3759-V, VI-MRSA, The United Kingdom
Counter-ions that a name gives are not always drawn.
Reported MIC values are given for each entry in this list.

Here is how some compounds turned out for MIC.
* CN[C@H](CC(C)C)C(=O)N[C@H]1C(=O)N[C@@H](CC(N)=O)C(=O)N[C@H]2C(=O)N[C@H]3C(=O)N[C@H](C(=O)N[C@H](C(=O)O)c4cc(O)cc(O)c4-c4cc3ccc4O)[C@H](O)c3ccc(c(Cl)c3)Oc3cc2cc(c3O[C@@H]2O[C@H](CO)[C@@H](O)[C@H](O)[C@H]2O[C@H]2C[C@](C)(N)[C@H](O)[C@H](C)O2)Oc2ccc(cc2Cl)[C@H]1O | 2 µg/mL
* C[C@H]1COc2c(N3CCN(C)CC3)c(F)cc3c(=O)c(C(=O)O)cn1c23 | 16 µg/mL
* CCn1cc(C(=O)O)c(=O)c2cc(F)c(N3CCNCC3)cc21 | 128 µg/mL
* Cc1onc(-c2ccccc2)c1C(=O)N[C@@H]1C(=O)N2[C@@H]1SC(C)(C)[C@@H]2C(=O)O | 512 µg/mL
* C[C@@H]1CN(c2c(F)c(N)c3c(=O)c(C(=O)O)cn(C4CC4)c3c2F)C[C@H](C)N1 | 16 µg/mL

Note to self: MIC recorded for CC1COc2c(N3CCN(C)CC3)c(F)cc3c(=O)c(C(=O)O)cn1c23 (stereo not drawn) was 32 µg/mL

compound Cc1cc(=O)n2c3c(c4c(cc13)c(CO)cc(=O)n4C)OC2 , MIC observed: 0.5 µg/mL

The recorded MIC for Cc1cc(=O)n(C)c2c3c4c(cc12)c(C)cc(=O)n4CO3 is 1 µg/mL

What the record says about NC1CCN(c2nc3c(cc2F)c(=O)c(C(=O)O)cn3-c2ccc(F)cc2F)C1 (stereo not drawn) [TFLX, tosufloxacin tosylate] : MIC is 16 µg/mL

---

Readings of MIC for the listed compounds
# System: VISA clinical isolates of MRSA (VI-MRSA) and of MSSA (VI-MSSA)
# assay-protocol: microbe, parasite or virus in culture
# Format: cell-based, Staphylococcus aureus
# assay-conditions: Staphylococcus aureus, SA MER-S6, VI-MSSA, France
Structures can show the parent of a compound that is named as a salt.
// units = mg/L; emit number, no label

These recorded examples may help you get a feel for the data.
- CCn1cc(C(=O)O)c(=O)c2cc(F)c(N3CCNCC3)cc21 [NFLX, norfloxacin]: 2
- NC1CCN(c2nc3c(cc2F)c(=O)c(C(=O)O)cn3-c2ccc(F)cc2F)C1 (stereo not drawn) [TFLX, tosufloxacin tosylate]: 0.25
- C[C@H]1COc2c(N3CCN(C)CC3)c(F)cc3c(=O)c(C(=O)O)cn1c23 [LVFX, levofloxacin]: 0.5
- CN[C@H](CC(C)C)C(=O)N[C@H]1C(=O)N[C@@H](CC(N)=O)C(=O)N[C@H]2C(=O)N[C@H]3C(=O)N[C@H](C(=O)N[C@H](C(=O)O)c4cc(O)cc(O)c4-c4cc3ccc4O)[C@H](O)c3ccc(c(Cl)c3)Oc3cc2cc(c3O[C@@H]2O[C@H](CO)[C@@H](O)[C@H](O)[C@H]2O[C@H]2C[C@](C)(N)[C@H](O)[C@H](C)O2)Oc2ccc(cc2Cl)[C@H]1O [VCM, vancomycin]: 4
- C[C@@H]1CN(c2c(F)c(N)c3c(=O)c(C(=O)O)cn(C4CC4)c3c2F)C[C@H](C)N1 [SPFX, sparfloxacin]: 0.25
- Cc1cc(=O)n2c3c(c4c(cc13)c(CO)cc(=O)n4C)OC2 [NM, nybomycin]: 64
- CC1COc2c(N3CCN(C)CC3)c(F)cc3c(=O)c(C(=O)O)cn1c23 (stereo not drawn) [OFLX, ofloxacin]: 1

Now turn to the next compound.
// MIC (VISA clinical isolates of MRSA (VI-MRSA) and of MSSA (VI-MSSA)) for Cc1onc(-c2ccccc2)c1C(=O)N[C@@H]1C(=O)N2[C@@H]1SC(C)(C)[C@@H]2C(=O)O [OXA, oxacillin] = 1
